Reference source for all entries: paper PMC10974052

Below, each of the molecules is paired with its reported melting point value.

Cc1cc(-c2ccccc2)c(NC(=O)c2nnc(/C=C/C(=O)O)s2)c(=O)[nH]1 199 to 202 °C
Cc1cc(-c2cccs2)c(NC(=O)c2nnc(-c3ccccc3C(=O)O)s2)c(=O)[nH]1 275 to 277 °C
Cc1cc(-c2ccccc2)c(NC(=O)c2nnc(CCCC(=O)O)s2)c(=O)[nH]1 243 to 246 °C
Cc1cc(C)c(NC(=O)c2nnc(-c3ccccc3C(=O)O)s2)c(=O)[nH]1 315 to 318 °C
Cc1cc(-c2cccs2)c(NC(=O)c2nnc(CCCC(=O)O)s2)c(=O)[nH]1 197 to 200 °C
Cc1cc(C)c(NC(=O)c2nnc(/C=C/C(=O)O)s2)c(=O)[nH]1 261 to 263 °C
Cc1cc(-c2cccs2)c(NC(=O)c2nnc(/C=C/C(=O)O)s2)c(=O)[nH]1 247 to 250 °C
Cc1cc(-c2ccccc2)c(NC(=O)c2nnc(-c3ccccc3C(=O)O)s2)c(=O)[nH]1 176 to 180 °C

// moving on: another record for melting point
### Prompt What value of melting point has been reported for the following molecule? `Cc1cc(C)c(NC(=O)c2nnc(CCCC(=O)O)s2)c(=O)[nH]1`
### Response 248 to 250 °C
